Target: T1, human ferroportin (SLC40A1) fused in frame with GFP, stably expressed in HEK293 cells (human, UniProt Q9NP59 1-571)
T1 sequence (looked up): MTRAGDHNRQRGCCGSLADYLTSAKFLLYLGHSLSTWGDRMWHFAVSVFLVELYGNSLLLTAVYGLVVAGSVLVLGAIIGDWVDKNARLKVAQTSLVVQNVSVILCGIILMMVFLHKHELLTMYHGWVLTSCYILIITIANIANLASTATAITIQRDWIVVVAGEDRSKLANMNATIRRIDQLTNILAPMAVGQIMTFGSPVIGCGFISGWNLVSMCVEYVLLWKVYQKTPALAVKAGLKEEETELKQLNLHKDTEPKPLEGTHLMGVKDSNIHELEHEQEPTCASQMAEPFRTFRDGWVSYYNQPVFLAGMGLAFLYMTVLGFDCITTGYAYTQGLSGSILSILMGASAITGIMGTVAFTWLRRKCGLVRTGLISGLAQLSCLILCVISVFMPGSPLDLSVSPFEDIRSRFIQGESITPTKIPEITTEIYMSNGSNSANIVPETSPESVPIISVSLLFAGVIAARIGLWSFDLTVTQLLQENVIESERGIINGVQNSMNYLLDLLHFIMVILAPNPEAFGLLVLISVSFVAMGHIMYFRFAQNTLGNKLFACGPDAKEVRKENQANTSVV
Assay: cell-based or functional assay
Bridge positions count the residues as written; N and C are the ends. Square brackets hold non-standard residues; d marks the D form. Side chains are listed from the residue outwards. * marks the point of attachment. Palmitoyl = CCCCCCCCCCCCCCCC(=O)*; Isovaleryl = CC(C)CC(=O)*; Octanoyl = CCCCCCCC(=O)*; Dap = NC[C@H](N)C(=O)O
measurementName: Potency EC50 (nM), ferroportin-GFP internalization/degradation

binder	result
Isovaleryl-DTHAPCIKFEPRSKGWECK-NH2 (not fully specified (bridges); cysteine pairing not given here) [Isovaleric acid-DTHAPCIKFEPRSKGWECK-NH2]	> 10000 nM
Isovaleryl-HFPCIKFEPRSKGWVCK(Octanoyl)-NH2 (disulfide 4-16 (inferred)) [Isovaleric acid-HFPCIKFEPRSKGWVC-K(octanoic acid)-NH2]	> 300 nM
Isovaleryl-DTHFPCIKFEPRSK([Dap-Palmitoyl])GCK-NH2 (not fully specified (bridges); cysteine pairing not given here) [Isovaleric acid-DTHFPCIKFEPRS-K(dapa-Palm)-GCK-NH2]	7 nM
H-DTHFPCIDFGPRSKGWVCK-NH2 (disulfide 6-18 (inferred)) [Hy-DTHFPCIDFGPRSKGWVCK-NH2]	> 1000 nM
Isovaleryl-DTHFPCKIFGPRSKGWECK-NH2 (disulfide 6-18 (inferred)) [Isovaleric acid-DTHFPCKIFGPRSKGWECK-NH2]	163 nM
H-DTHFPCEIF-NH2 [Hy-DTHFPCEIF-NH2]	> 1000 nM
H-DTHFPIAIFAAICI-NH2 [Hy-DTHFPIAIFAAICI-NH2]	> 10000 nM
H-DTHFPIAICI-NH2 [Hy-DTHFPIAICI-NH2]	> 10000 nM
Isovaleryl-DTHFPCIKAGPRSKGWVCK-NH2 (not fully specified (bridges); cysteine pairing not given here) [Isovaleric acid-DTHFPCIKAGPRSKGWVCK-NH2]	50 nM
H-DTHFPCIIFGPRSRGHVCK-NH2 (not fully specified (bridges); printed as Hy-DTHFPCIIFGPRSRGHVCK-NH2; cysteine pairing not given here) [Hy-DTHFPCIIFGPRSRGHVCK-NH2]	> 1000 nM
Isovaleryl-DTHFPCIIFEPRSKLWVCK-NH2 (disulfide 6-18 (inferred)) [Isovaleric acid-DTHFPCIIFEPRSKLWVCK-NH2]	7 nM
Isovaleryl-DTHFECIIFGPRSKGWVCK-NH2 (not fully specified (bridges); cysteine pairing not given here) [Isovaleric acid-DTHFECIIFGPRSKGWVCK-NH2]	> 1000 nM
Isovaleryl-DTHFPCIIFEPRSKFWVCK-NH2 (disulfide 6-18 (inferred)) [Isovaleric acid-DTHFPCIIFEPRSKFWVCK-NH2]	10 nM
H-DTHFPCIIA-NH2 [Hy-DTHFPCIIA-NH2]	> 1000 nM
H-DTAFPCIIF-NH2 [Hy-DTAFPCIIF-NH2]	739 nM
Palmitoyl-DTHFPCIKFGPRSKGWVCK-NH2 (disulfide 6-18 (inferred)) [Palm-DTHFPCIKFGPRSKGWVCK-NH2]	> 1000 nM
H-DTHFPCLIF-NH2 [Hy-DTHFPCLIF-NH2]	> 10000 nM
Isovaleryl-DTHFPCIKFKPHSKEWVCE-NH2 (disulfide 6-18 (inferred)) [Isovaleric acid-DTHFPCIKFKPHSKEWVCE-NH2]	46 nM
DTHFPCIKFKPRSKGWVC (N-terminal isovaleric acid; K(decanoic acid) at Lys 10; C-terminal amide) [Isovaleric acid-DTHFPCIKF-K(decanoic acid)-PRSKGWVC-NH2]	22 nM
H-DTHFP[dC]IIFGPRSKGWVA[dC]-NH2 (disulfide 6-19 (inferred)) [Hy-DTHFP-[(D)Cys]-IIFGPRSKGWVA-[(D)Cys]-NH2]	> 10000 nM
